All figures here come from paper PMC6650976.

Reported Dimer 50 kDa, % values for the following proteins.
molecular target: the molecule itself; experiment: cross-linking; Mg2+-loaded proteins: 0.02% glutaric aldehyde, 16 h, 20 °C, protein 1 mg/mL, 20 mM Tricine-KOH pH 7.4, 50 mM KCl, 1 mM DTT, 1 mM MgCl2, 1 mM EGTA; SDS-PAGE, Coomassie, densitometry; self-association
Express your answer in %, writing the number without its unit.

Below, 3 proteins whose answers are already recorded.
human recoverin mutant Y86A (natural protein, UniProt P35243 1-200, looked up, myristoylated (fraction of non-myristoylated forms did not exceed 16%), recoverin, human, UniProt P35243, N-terminal 'black' cluster mutant; Parent construct as m1; source: E. coli, expressed and purified similarly to the rWT protein (phenyl-Sepharose, Toyopearl SuperQ-650M)) MGNSKSGALSKEILEELQLNTKFSEEELCSWYQSFLKDCPTGRITQQQFQSIYAKFFPDTDPKAYAQHVFRSFDSNLDGTLDFKEAVIALHMTTAGKTNQKLEWAFSLYDVDGNGTISKNEVLEIVMAIFKMITPEDVKLLPDDENTPEKRAEKIWKYFGKNDDDKLTEKEFIEGTLANKEILRLIQFEPQKVKEKMKNA    33.9
human recoverin mutant F70A (natural protein, UniProt P35243 1-200, looked up, myristoylated (fraction of non-myristoylated forms did not exceed 16%), recoverin, human, UniProt P35243, N-terminal 'gray' cluster mutant; Parent construct as m1; source: E. coli, expressed and purified similarly to the rWT protein (phenyl-Sepharose, Toyopearl SuperQ-650M)) MGNSKSGALSKEILEELQLNTKFSEEELCSWYQSFLKDCPTGRITQQQFQSIYAKFFPDTDPKAYAQHVARSFDSNLDGTLDFKEYVIALHMTTAGKTNQKLEWAFSLYDVDGNGTISKNEVLEIVMAIFKMITPEDVKLLPDDENTPEKRAEKIWKYFGKNDDDKLTEKEFIEGTLANKEILRLIQFEPQKVKEKMKNA    26.9
human recoverin mutant F49A (natural protein, UniProt P35243 1-200, looked up, myristoylated (fraction of non-myristoylated forms did not exceed 16%), recoverin, human, UniProt P35243, N-terminal 'gray' cluster mutant; Parent construct as m1; source: E. coli, expressed and purified similarly to the rWT protein (phenyl-Sepharose, Toyopearl SuperQ-650M)) MGNSKSGALSKEILEELQLNTKFSEEELCSWYQSFLKDCPTGRITQQQAQSIYAKFFPDTDPKAYAQHVFRSFDSNLDGTLDFKEYVIALHMTTAGKTNQKLEWAFSLYDVDGNGTISKNEVLEIVMAIFKMITPEDVKLLPDDENTPEKRAEKIWKYFGKNDDDKLTEKEFIEGTLANKEILRLIQFEPQKVKEKMKNA    32.1

Now look at this entry.
Which Dimer 50 kDa, % is listed for human recoverin mutant F83A (natural protein, UniProt P35243 1-200, looked up, myristoylated (fraction of non-myristoylated forms did not exceed 16%), recoverin, human, UniProt P35243, N-terminal 'black' cluster mutant; Parent construct as m1; source: E. coli, expressed and purified similarly to the rWT protein (phenyl-Sepharose, Toyopearl SuperQ-650M)) MGNSKSGALSKEILEELQLNTKFSEEELCSWYQSFLKDCPTGRITQQQFQSIYAKFFPDTDPKAYAQHVFRSFDSNLDGTLDAKEYVIALHMTTAGKTNQKLEWAFSLYDVDGNGTISKNEVLEIVMAIFKMITPEDVKLLPDDENTPEKRAEKIWKYFGKNDDDKLTEKEFIEGTLANKEILRLIQFEPQKVKEKMKNA ?
33.8
